tested on: MCC cell lines (WAGA, MKL-1, MKL-2, MCC13, MCC26, UISO); assay: qHTS cell viability, all six MCC cell lines as a group (mean AUC, MCC.avg); type: cell-based, human
Reported values of MCC_Avg_AUC for individual entries
recorded.metric: MCC_Avg_AUC

• CC(C)(C)CC(C)(C)c1ccc(OCCOCC[N+](C)(C)Cc2ccccc2)cc1 [Benzethonium chloride] = 398.298
• COc1cc(CCN)c(OC)cc1Br.Cl = 400.883
• CCC(=O)OC1(c2ccccc2)CCN(C)CC1.Cl = 435.67
• N[C@@H](Cc1ccc(N(CCCl)CCCl)cc1)C(=O)O = 419.939
• CNC(C)Cc1ccc2c(c1)OCO2.Cl (stereo not drawn) = 435.698
• CNC(=O)[C@H](CC1=CN=C2C=CCC=C12)NC(=O)[C@@H](CC(=O)NO)CC(C)C = 388.271
• Cl.Oc1ccc2c3c1O[C@H]1[C@@H](O)C=C[C@H]4[C@@H](C2)NCC[C@@]341 [N-Normorphine hydrochloride] = 427.82
• CC(O)C(=O)O.CCOc1ccc2nc3cc(N)ccc3c(N)c2c1.O [Ethacridine lactate hydrate] = 394.957
• CN(C)C(=O)Nc1ccc(Cl)c(Cl)c1 = 327.57

###

system: MKL-1 cells (VP-MCC); assay: qHTS cell viability (CellTiter-Glo, 72 h; primary and follow-up small molecule screen); format: cell-based, human; conditions: area under the dose-response curve, MKL-1 cells; AUC<450 = reduced viability
Counter-ions that a name gives are not always drawn.
Criterion: MKL1_AUC strictly less than 400. Met: TRUE. Not met: FALSE.

* CC1=C(/C=C/C(C)=C/C=C/C(C)=C\C(=O)O)C(C)(C)CCC1 | FALSE
* Cc1c(C)n(Cc2ccc(-c3ccccc3C(=O)O)cc2)c2ccc(C(=O)N[C@@H](C)c3ccc([N+](=O)[O-])cc3)cc12 | TRUE
* O=C(CCc1ccc(O)cc1)c1c(O)cc(O)cc1O | FALSE
* O=C(CCCN1CCC(O)(c2ccc(Br)cc2)CC1)c1ccc(F)cc1 | TRUE
* COc1cc(C(=O)NCc2ccc(OCCN(C)C)cc2)cc(OC)c1OC [Trimethobenzamide hydrochloride] | FALSE
* CSc1ccc2c(c1)N(CCC1CCCCN1C)c1ccccc1S2 (stereo not shown) | FALSE
* CC(=O)O[C@]1(C(C)=O)CC[C@H]2[C@@H]3C=C(C)C4=CC(=O)CC[C@]4(C)[C@H]3CC[C@@]21C [Megestrol acetate] | FALSE
* C[C@H](CCC(=O)O)[C@H]1CC[C@H]2[C@@H]3[C@H](O)C[C@@H]4C[C@H](O)CC[C@]4(C)[C@H]3CC[C@]12C | FALSE

###

system: VP-MCC cell lines (WAGA, MKL-1, MKL-2); assay: qHTS cell viability, VP-MCC cell lines as a group (mean AUC, VP.MCC.avg); type: cell-based, human; conditions: NPC library; therapeutic window: Control avg AUC minus VP-MCC avg AUC
Structures can show the parent of a compound that is named as a salt.
recorded.metric: Control-VP-MCC

- COc1cc(/C=C2\CCC/C(=C\c3ccc(O)c(OC)c3)C2=O)ccc1O [Cyclovalone]: 60.1479
- CN(CC1(C)CCCO1)S(=O)(=O)c1ccc(Cl)c(S(N)(=O)=O)c1 (stereo not drawn) [Mefruside]: 56.732
- Oc1ccc(O)cc1 [Hydroquinone]: 91.96
- CCCCCCCCOc1ccccc1C(=O)Nc1ccc(C(=O)OCC[N+](C)(CC)CC)cc1 [Octylonium bromide]: 83.5367
- CNS(=O)(=O)CCc1ccc2[nH]cc(C3CCN(C)CC3)c2c1 [Naratriptan hydrochloride]: 53.9902
- Cn1c(=O)c2c(ncn2CCO)n(C)c1=O [Etofylline]: 88.7707
- O=C(CCCCCCCCC#CI)Oc1ccccc1 [Phenyl 11-iodo-10-undecynoate]: 81.5325
- CCCC(=O)OC[C@@H](OC(=O)CCC)[C@@H](OC(=O)CCC)[C@H](Cn1c2nc(=O)[nH]c(=O)c-2nc2cc(C)c(C)cc21)OC(=O)CCC [Riboflavin tetrabutyrate]: 51.0422
- COc1c(C)c2c(c(O)c1C/C=C(\C)CCC(=O)OCCN1CCOCC1)C(=O)OC2 [Mycophenolate mofetil]: 263.498
- CC[C@@]1(O)C(=O)OCc2c1cc1n(c2=O)Cc2cc3c(CN(C)C)c(O)ccc3nc2-1 [Topotecan HCl]: 134.37
- CCOc1ccc2nc(S(N)(=O)=O)sc2c1 [Ethoxzolamide]: 63.3587
- CC1=C(C)C(=O)C(CCCCC#CCCCC#CCO)=C(C)C1=O [Docebenone]: 53.5349
- CCOC(=O)N1CCC(=C2c3ccc(Cl)cc3CCc3cccnc32)CC1 [Loratadine]: 67.0216
- C[C@@H]1CN(CCCn2c3ccccc3c3ccccc32)C[C@H](C)N1.Cl.Cl [Rimcazole dihydrochloride]: 70.5333
- CCCCC(CC)CNC(=N)NC(=N)NCCCCCCNC(=N)NC(=N)NCC(CC)CCCC (stereo not drawn) [Alexidine dihydrochloride]: 64.8071
- Clc1ccc(C(Cn2ccnc2)OCc2ccsc2Cl)c(Cl)c1 (stereo not drawn) [Tioconazole]: 187.435
- CCCCCC(=O)O[C@]1(C(C)=O)CC[C@H]2[C@@H]3CCC4=CC(=O)CC[C@]4(C)[C@H]3CC[C@@]21C [Hydroxyprogesterone caproate]: 125.408
- Cc1cc(OCCOCC[N+](C)(C)Cc2ccccc2)ccc1C(C)(C)CC(C)(C)C.[Cl-] [Methylbenzethonium chloride]: 174.06
- O=C1OC(CCN2CCCCC2)OC1(c1ccccc1)c1ccccc1 (stereo not drawn) [Pipoxolan hydrochloride]: 52.3854
- CCCC(C(=O)OCCN(CC)CC)(c1ccccc1)c1ccccc1 [Proadifen hydrochloride]: 59.0165
- CCCCCCCCCCCCCCCC[N+](C)(C)CC [Ethylhexadecyldimethylammonium bromide]: 106.318
- CNCc1ccccc1.Cl [N-Methylbenzylamine hydrochloride]: 102.527
- [H]/N=C(\N/C(=N/[H])NCCCCCCNC(=N)NC(=N)Nc1ccc(Cl)cc1)Nc1ccc(Cl)cc1 [Chlorhexidine]: 68.1526
- N=C(N)NC(=O)c1nc(Cl)c(N)nc1N [Amiloride]: 61.468

###

Area under the dose-response curve (AUC) MKL-1 Replicate 3 values, listed per item
test system: MKL-1 cells (VP-MCC); assay: qHTS cell viability (CellTiter-Glo, 72 h; primary and follow-up small molecule screen); format: cell-based, human; conditions: follow-up screen; MKL-1; replicate 3
Counter-ions that a name gives are not always drawn.
recorded.metric: Area under the dose-response curve (AUC) MKL-1 Replicate 3

* Nc1ccc(C(=O)Nc2ccccc2N)cc1 | 398.6
* CC(=O)[C@]1(O)Cc2c(O)c3c(c(O)c2[C@@H](O[C@H]2C[C@H](N)[C@H](O)[C@H](C)O2)C1)C(=O)c1ccccc1C3=O [Idarubicin hydrochloride] | 233.3
* CN1CCCC(n2nc(Cc3ccc(Cl)cc3)c3ccccc3c2=O)CC1 (stereo not drawn) [Azelastine hydrochloride] | 475.2
* COc1cc(/C=C2\CCC/C(=C\c3ccc(O)c(OC)c3)C2=O)ccc1O | 407.6
* CN[C@@H]1[C@H](O)[C@H](NC)[C@H]2O[C@@]3(O)C(=O)C[C@@H](C)O[C@H]3O[C@@H]2[C@H]1O.Cl.Cl.O.O.O.O.O [Spectinomycin hydrochloride] | 515.8
* CCN(CCO)CCCC(C)Nc1ccnc2cc(Cl)ccc12 (stereo not drawn) [Hydroxychloroquine sulfate] | 499.9

###

system: VN-MCC cell lines (MCC13, MCC26, UISO); test: qHTS cell viability, VN-MCC cell lines as a group (mean AUC, VN.MCC.avg); assay type: cell-based, human
recorded.metric: VN-MCC_Avg_AUC

- CCCCCCCCCCCC[N+](C)(C)CCOc1ccccc1 [Domiphen bromide]: 417.789
- CC(C)(C)CC(C)(C)c1ccc(OCCOCC[N+](C)(C)Cc2ccccc2)cc1 [Benzethonium chloride]: 447.14
- COc1cc(NC(C)CCCN)c2ncccc2c1 (stereo not drawn) [Primaquine diphosphate]: 467.687

###

tested on: UISO cells (VN-MCC); assay: qHTS cell viability (CellTiter-Glo, 72 h; primary and follow-up small molecule screen); assay type: cell-based, human; conditions: follow-up screen; UISO; replicate 1
Each record is given t if its reported Area under the dose-response curve (AUC) UISO Replicate 1 is strictly below 300. Records at or above 300 are given f.

* COCc1c(C(C)C)nc(C(C)C)c(/C=C/[C@@H](O)C[C@@H](O)CC(=O)O)c1-c1ccc(F)cc1 [Cerivastatin sodium] | t
* Cc1cc(Nc2cc(N3CCN(C)CC3)nc(Sc3ccc(NC(=O)C4CC4)cc3)n2)[nH]n1 [Tozasertib, reference compound] | f
* O=c1cc(-c2ccc(O)cc2)oc2cc(O)cc(O)c12 [Apigenin] | f
